Source listed as patent US20090233795A1.

system: Erysiphe [syn. Blumeria] graminis forma specialis. tritici; experiment: Activity against mildew of wheat; assay type: in vivo; details: 1 mg/l, sprayed 24 hours before inoculation, rated after 7 days
READOUT_TYPE: Observed activity (% infection)

Lookup: Please tell me: Observed activity (% infection) of COC(=O)N(OC)c1ccccc1COc1ccn(-c2ccc(Cl)cc2)n1 [pyraclostrobin, reference compound] , system Erysiphe [syn. Blumeria] graminis forma specialis. tritici?
Found: 40%

Lookup: Recorded Observed activity (% infection) for Cn1cc(C(=O)Nc2ccccc2-c2cccc(C(F)(F)F)c2)c(C(F)F)n1 with Erysiphe [syn. Blumeria] graminis forma specialis. tritici, please?
Found: 0%

Lookup: Param readout = Observed activity (% infection); param system = Erysiphe [syn. Blumeria] graminis forma specialis. tritici; param query = Cn1cc(C(=O)Nc2ccccc2-c2cccc(Cl)c2)c(C(F)(F)F)n1 ; response: value
Found: 0%

Lookup: Requested read-out Observed activity (% infection), target or system Erysiphe [syn. Blumeria] graminis forma specialis. tritici, entry CC1(C)CC/C(=C\c2ccc(Cl)cc2)C1(O)Cn1cncn1 (stereo not shown) [triticonazole, reference compound]
Found: 40%
